Origin of the recorded values: ChEMBL document CHEMBL1201862

- experimental_system: Ataxin-2 (Homo sapiens) (UniProt Q99700)
- Sequence (Q99700 whole entry): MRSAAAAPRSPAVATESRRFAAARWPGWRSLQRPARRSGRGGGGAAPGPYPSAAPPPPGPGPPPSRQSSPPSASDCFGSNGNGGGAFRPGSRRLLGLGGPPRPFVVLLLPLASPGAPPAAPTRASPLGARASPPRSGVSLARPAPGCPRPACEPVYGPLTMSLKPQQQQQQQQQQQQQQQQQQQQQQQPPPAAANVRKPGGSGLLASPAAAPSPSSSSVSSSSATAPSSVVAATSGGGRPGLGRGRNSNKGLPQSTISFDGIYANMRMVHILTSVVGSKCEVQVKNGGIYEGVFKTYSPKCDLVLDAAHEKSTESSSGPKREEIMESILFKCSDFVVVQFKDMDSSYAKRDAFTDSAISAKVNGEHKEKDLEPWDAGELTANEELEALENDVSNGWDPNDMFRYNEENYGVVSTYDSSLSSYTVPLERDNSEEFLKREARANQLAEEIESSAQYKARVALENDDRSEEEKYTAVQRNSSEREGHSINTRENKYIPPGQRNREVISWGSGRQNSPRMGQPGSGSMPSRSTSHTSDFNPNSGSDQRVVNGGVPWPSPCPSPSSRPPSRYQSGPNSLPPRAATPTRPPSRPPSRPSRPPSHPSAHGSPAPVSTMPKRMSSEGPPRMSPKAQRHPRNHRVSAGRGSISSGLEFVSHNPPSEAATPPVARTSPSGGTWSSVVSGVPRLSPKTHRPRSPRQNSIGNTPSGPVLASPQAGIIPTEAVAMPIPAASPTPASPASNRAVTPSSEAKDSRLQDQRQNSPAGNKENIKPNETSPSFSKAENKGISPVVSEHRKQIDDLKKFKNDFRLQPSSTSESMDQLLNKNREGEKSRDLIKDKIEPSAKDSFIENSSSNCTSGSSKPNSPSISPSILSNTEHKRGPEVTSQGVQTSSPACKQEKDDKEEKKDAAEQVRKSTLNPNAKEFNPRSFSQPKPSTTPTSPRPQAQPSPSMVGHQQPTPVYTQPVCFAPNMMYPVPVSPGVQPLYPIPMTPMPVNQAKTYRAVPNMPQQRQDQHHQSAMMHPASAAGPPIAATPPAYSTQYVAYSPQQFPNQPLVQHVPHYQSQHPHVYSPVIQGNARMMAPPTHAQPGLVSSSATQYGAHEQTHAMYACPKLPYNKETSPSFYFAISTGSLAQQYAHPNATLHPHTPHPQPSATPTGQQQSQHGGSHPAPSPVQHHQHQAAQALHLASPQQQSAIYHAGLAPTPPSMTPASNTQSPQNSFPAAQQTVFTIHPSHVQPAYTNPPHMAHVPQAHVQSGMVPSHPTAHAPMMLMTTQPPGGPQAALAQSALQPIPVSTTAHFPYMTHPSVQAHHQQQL
- assay_protocol: qHTS for Inhibitors of ATXN expression.
- Assay type: functional
About 2,100 (0.53%) of roughly 400,000 compounds were called active. Roughly 14% stayed inconclusive and do not appear here. The rule behind the calls is not given here. The list comes from a sample in which actives are over-represented; it also holds close analogues and randomly drawn compounds.
Allowed answers: 1 (yes) (active), 0 (no) (inactive)

[
  {
    "compound": "Cc1ccc(S(=O)(=O)N2CCN(C(=O)c3cc(C4CC4)nc4c3cnn4C(C)C)CC2)cc1",
    "experimental_system": "Ataxin-2 (Homo sapiens) (UniProt Q99700)",
    "assigned_class": "0 (no)"
  },
  {
    "compound": "Clc1cccc(N/N=C/c2ccc(N3CCOCC3)s2)c1",
    "experimental_system": "Ataxin-2 (Homo sapiens) (UniProt Q99700)",
    "assigned_class": "1 (yes)"
  },
  {
    "compound": "CCn1cc(C2C3=C(O)CCCC3=NC(C)=C2C(=O)Nc2ccc(Br)cn2)c(C)n1 (stereo unspecified)",
    "experimental_system": "Ataxin-2 (Homo sapiens) (UniProt Q99700)",
    "assigned_class": "0 (no)"
  },
  {
    "compound": "Cc1nc(=O)c(-c2ccccc2)c(C)n1-c1ccccc1Cl",
    "experimental_system": "Ataxin-2 (Homo sapiens) (UniProt Q99700)",
    "assigned_class": "0 (no)"
  },
  {
    "compound": "CCN1C(=O)/C(=C\\C=C2/C=CC=CN2CC)SC1=S",
    "experimental_system": "Ataxin-2 (Homo sapiens) (UniProt Q99700)",
    "assigned_class": "1 (yes)"
  }
]

Q: Given `Oc1c(Cl)cc(Cl)cc1/C=N/c1ccc(N2CCOCC2)cc1` , state the outcome it received in this test.
Result: 0 (no)

Q: Given `CCN(CC)S(=O)(=O)c1cccc(-c2nnc(SCC(N)=O)n2C)c1` , state the outcome it received in this test.
Result: 0 (no)

Q: Given CC(C)(C)c1ccc(C(O)c2nc(-c3ccccc3Cl)c[nH]2)cc1 (stereo unspecified) , state the outcome it received in this test.
Result: 1 (yes)

* * *

- experimental_system: Ataxin-2 (Homo sapiens) (UniProt Q99700)
- assay_protocol: qHTS for Inhibitors of ATXN expression.
- Format: functional
The whole screen tested about 400,000 compounds, of which about 2,100 (0.53%) were called active. Another 14% or so got no clear call; they are omitted. No rule for the calls is given here. The entries come from a sample that favours actives as a whole.
Allowed answers: YES (active), NO (inactive)

[
  {
    "compound": "c1cncc(Nc2c3ccccc3nc3ccccc23)c1",
    "assigned_class": "NO"
  }
]

Note: attention shifts to another entry.
Q: Given CCCCC(CC)CN1C(=O)/C(=C/c2c[nH]nc2-c2ccccc2)SC1=S (configuration not stated) , state the outcome it received in this test.
Result: YES

* * *

- experimental_system: Ataxin-2 (Homo sapiens)
- assay_protocol: qHTS for Inhibitors of ATXN expression.
- Format: functional
Out of some 400,000 compounds screened, about 2,100 (0.53%) were called active. Roughly 14% stayed inconclusive and do not appear here. How the calls were made is not given here. For the sample, actives were picked, then their nearest neighbours and some compounds at random.
Allowed answers: active, inactive

Consider the following illustrative entries.
[
  {
    "compound": "CCC(CC)COC(=O)C1=C(C)NC(=O)NC1c1ccc([N+](=O)[O-])cc1 (stereo not given)",
    "assigned_class": "inactive"
  },
  {
    "compound": "COc1ccc(OC)c(NC(=O)CCN2CCN(C/C=C/c3ccccc3)CC2)c1",
    "assigned_class": "inactive"
  },
  {
    "compound": "CCOC(=O)c1[nH]c2ccc(F)cc2c1NC(=O)CN1CCN(C/C=C/c2ccccc2)CC1",
    "assigned_class": "active"
  },
  {
    "compound": "CC(Sc1nnc(-c2cccnc2)o1)C(=O)NC1CCCCC1 (stereo not given)",
    "assigned_class": "inactive"
  }
]

Q: Given `CCCCNc1c(N)n(CCC)c(=O)[nH]c1=O` , state the outcome it received in this test.
Result: inactive

Q: Given CC(=O)CC1OC(O)=C(Br)/C1=N/Cc1ccccc1 (stereo not given) , state the outcome it received in this test.
Result: active

Q: Given COC(=O)C1=C(C)NC(=O)NC1c1ccc(OC(=O)c2ccco2)cc1 (stereo not given) , state the outcome it received in this test.
Result: inactive

Q: Given `OCCN(CCO)c1nc(N2CCCCC2)c2nc(N(CCO)CCO)nc(N3CCCCC3)c2n1` , state the outcome it received in this test.
Result: inactive

Q: Given `COc1cc(NC(=O)CN2CCN(S(=O)(=O)/C=C/c3ccccc3)CC2)cc(OC)c1OC` , state the outcome it received in this test.
Result: inactive

Q: Given CCOC(=O)C1=C(CN2CCN(c3ccc(OC)cc3)CC2)NC(=O)NC1c1ccc(Cl)cc1 (stereo not given) , state the outcome it received in this test.
Result: active
